Cited source: the supplement of paper PMC8728848

# system under test: Gal(b1-4)GlcNAc(b1-3)Gal(b1-4)GlcNAc(b1-2)Man(a1-3)[Gal(b1-4)GlcNAc(b1-3)Gal(b1-4)GlcNAc(b1-2)Man(a1-6)]Man(b1-4)GlcNAc(b1-4)[Fuc(a1-6)]GlcNAc
# protocol description: glycan array binding signal (z-score within array); higher = stronger binding
# measurement conditions: glycan notation: IUPAC condensed, linker removed
The full list was thinned out, with the strongest signals kept by preference.
Decision: glycan array binding signal (z-score) >= 3 yields Condition met, all other cases yield Condition not met.

Reference set (3 entries):
[
  {
    "binder": "HML-Native (Hypnea musciformis), P84871 (protein) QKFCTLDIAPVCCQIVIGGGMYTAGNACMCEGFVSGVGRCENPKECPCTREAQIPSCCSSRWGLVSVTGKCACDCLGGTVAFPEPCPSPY",
    "category label": "Condition met"
  },
  {
    "binder": "ACA (Amaranthus caudatus) (protein) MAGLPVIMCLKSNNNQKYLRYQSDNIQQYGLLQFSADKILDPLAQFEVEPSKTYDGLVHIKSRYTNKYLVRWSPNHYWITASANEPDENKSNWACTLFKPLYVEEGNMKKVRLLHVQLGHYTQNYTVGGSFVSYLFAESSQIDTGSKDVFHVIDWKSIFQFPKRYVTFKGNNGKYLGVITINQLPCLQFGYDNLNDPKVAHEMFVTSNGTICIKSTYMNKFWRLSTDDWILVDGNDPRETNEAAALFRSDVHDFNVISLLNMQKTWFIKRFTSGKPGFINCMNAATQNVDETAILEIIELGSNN",
    "category label": "Condition met"
  },
  {
    "binder": "Mermaid2 (Stilbonema majum) (protein) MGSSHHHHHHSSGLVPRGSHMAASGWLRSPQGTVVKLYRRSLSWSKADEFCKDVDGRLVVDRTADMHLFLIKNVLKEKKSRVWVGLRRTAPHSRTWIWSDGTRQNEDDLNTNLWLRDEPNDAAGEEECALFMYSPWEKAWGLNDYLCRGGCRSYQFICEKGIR",
    "category label": "Condition not met"
  }
]

Turning to the following binder.
Would you say SGC, Q9M345 (protein) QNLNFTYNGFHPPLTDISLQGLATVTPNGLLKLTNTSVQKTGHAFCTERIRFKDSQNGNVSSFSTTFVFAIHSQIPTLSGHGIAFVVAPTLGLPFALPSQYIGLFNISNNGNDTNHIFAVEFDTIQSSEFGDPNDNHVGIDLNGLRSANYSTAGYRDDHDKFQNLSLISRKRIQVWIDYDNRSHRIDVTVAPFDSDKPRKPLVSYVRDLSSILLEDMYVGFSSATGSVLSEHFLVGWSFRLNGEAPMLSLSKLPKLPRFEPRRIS shows glycan array binding signal (z-score) at minimum 3?
Condition met
